Reported IL-2 luciferase reporter, Normalized Fold Change from CD155-ECD values for the following binders.
- targetOrSystem: T1, TIGIT (human)
- T1 chain: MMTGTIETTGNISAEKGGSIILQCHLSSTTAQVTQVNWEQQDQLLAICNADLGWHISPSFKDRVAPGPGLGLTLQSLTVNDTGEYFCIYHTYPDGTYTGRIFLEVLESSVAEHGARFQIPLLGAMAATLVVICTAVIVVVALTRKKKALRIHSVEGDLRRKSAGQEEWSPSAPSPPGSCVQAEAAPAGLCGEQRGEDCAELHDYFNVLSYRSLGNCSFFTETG
- protocol: cell-based or functional assay
metricName: IL-2 luciferase reporter, Normalized Fold Change from CD155-ECD

[[record]]
binder = "variant CD155 IgV-Fc V11E, P18H, F20Y, V25E, N35S, H49R, L79P, F91S, T107M, G111R (Fc fusion) WPPPGTGDVVEQAPTQVHGYLGDSETLPCYLQVPSMEVTHVSQLTWARRGESGSMAVFHQTQGPSYSESKRLEFVAARPGAELRNASLRMSGLRVEDEGNYTCLFVMFPQRSRSVDIWLRVLGSGGGGSEPKSSDKTHTCPPCPAPEAEGAPSVFLFPPKPKDTLMISRTPEVTCVVVDVSHEDPEVKFNWYVDGVEVHNAKTKPREEQYNSTYRVVSVLTVLHQDWLNGKEYKCKVSNKALPAPIEKTISKAKGQPREPQVYTLPPSRDELTKNQVSLTCLVKGFYPSDIAVEWESNGQPENNYKTTPPVLDSDGSFFLYSKLTVDKSRWQQGNVFSCSVMHEALHNHYTQKSLSLSPGK"
recordedvalue = "-0.6 fold"

[[record]]
binder = "variant CD155 IgV-Fc T15I, P18S, V33M, N35F, T39S, M55L, R78S, L79P, F91S, T107M (Fc fusion) WPPPGTGDVVVQAPIQVSGFLGDSVTLPCYLQMPFMEVSHVSQLTWARHGESGSLAVFHQTQGPSYSESKRLEFVAASPGAELRNASLRMSGLRVEDEGNYTCLFVMFPQGSRSVDIWLRVLGSGGGGSEPKSSDKTHTCPPCPAPEAEGAPSVFLFPPKPKDTLMISRTPEVTCVVVDVSHEDPEVKFNWYVDGVEVHNAKTKPREEQYNSTYRVVSVLTVLHQDWLNGKEYKCKVSNKALPAPIEKTISKAKGQPREPQVYTLPPSRDELTKNQVSLTCLVKGFYPSDIAVEWESNGQPENNYKTTPPVLDSDGSFFLYSKLTVDKSRWQQGNVFSCSVMHEALHNHYTQKSLSLSPGK"
recordedvalue = "1.3 fold"

[[record]]
binder = "variant CD155 IgV-Fc V9I, P18S, S24P, H49Q, F58Y, Q60R, Q62K, L79P, F91S, T107M (Fc fusion) WPPPGTGDIVVQAPTQVSGFLGDPVTLPCYLQVPNMEVTHVSQLTWARQGESGSMAVYHRTKGPSYSESKRLEFVAARPGAELRNASLRMSGLRVEDEGNYTCLFVMFPQGSRSVDIWLRVLGSGGGGSEPKSSDKTHTCPPCPAPEAEGAPSVFLFPPKPKDTLMISRTPEVTCVVVDVSHEDPEVKFNWYVDGVEVHNAKTKPREEQYNSTYRVVSVLTVLHQDWLNGKEYKCKVSNKALPAPIEKTISKAKGQPREPQVYTLPPSRDELTKNQVSLTCLVKGFYPSDIAVEWESNGQPENNYKTTPPVLDSDGSFFLYSKLTVDKSRWQQGNVFSCSVMHEALHNHYTQKSLSLSPGK"
recordedvalue = "1.1 fold"

[[record]]
binder = "variant CD155 IgV-Fc P18T, D23G, Q60R, S67L, L79P, F91S, T107M, V115A (Fc fusion) WPPPGTGDVVVQAPTQVTGFLGGSVTLPCYLQVPNMEVTHVSQLTWARHGESGSMAVFHRTQGPSYLESKRLEFVAARPGAELRNASLRMSGLRVEDEGNYTCLFVMFPQGSRSADIWLRVLGSGGGGSEPKSSDKTHTCPPCPAPEAEGAPSVFLFPPKPKDTLMISRTPEVTCVVVDVSHEDPEVKFNWYVDGVEVHNAKTKPREEQYNSTYRVVSVLTVLHQDWLNGKEYKCKVSNKALPAPIEKTISKAKGQPREPQVYTLPPSRDELTKNQVSLTCLVKGFYPSDIAVEWESNGQPENNYKTTPPVLDSDGSFFLYSKLTVDKSRWQQGNVFSCSVMHEALHNHYTQKSLSLSPGK"
recordedvalue = "8.6 fold"

